# experimental_system: human CD38 (Homo sapiens (Human), UniProt P28907)
# Sequence (P28907 whole entry): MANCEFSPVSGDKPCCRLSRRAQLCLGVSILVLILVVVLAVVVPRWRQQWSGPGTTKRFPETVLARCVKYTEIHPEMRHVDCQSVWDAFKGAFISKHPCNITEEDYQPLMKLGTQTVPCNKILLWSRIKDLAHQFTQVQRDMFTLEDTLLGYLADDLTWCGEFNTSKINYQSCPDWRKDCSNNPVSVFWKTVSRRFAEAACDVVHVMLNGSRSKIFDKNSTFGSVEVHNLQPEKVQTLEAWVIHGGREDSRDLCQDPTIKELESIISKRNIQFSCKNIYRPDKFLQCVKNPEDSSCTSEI
# assay_method_text: NAD+ cyclase activity assay with human recombinant CD38 protein
# condition_info: 1.9 nM human CD38, 15.8 μM e-NAD substrate, fluorescence read-out
pIC50: −log10 of the molar value. Where a name gives a salt, the structure may show the parent alone.
Field: pIC50. Provide a value for each of the compounds that follow.

- compound: "O=C(N[C@@H]1CCS(=O)(=O)C1)c1cc(C(F)(F)F)cc(-n2ccnc2)n1 [Compound 78A]"
  pIC50: "> 7.52"
- compound: "Cc1cc(C(=O)N[C@H]2CCS(=O)(=O)C2)nc(-n2ccnc2)c1 [Compound 55A]"
  pIC50: "6.00 to 7.00"
- compound: "COc1cc(C(=O)NC2CCN(S(C)(=O)=O)CC2)nc(-n2ccnc2)c1 [Compound 15A]"
  pIC50: "7.00 to 7.52"
- compound: "Cc1cc(C(=O)N[C@H]2CCCN(C(=O)OC(C)(C)C)C2)nc(-n2ccnc2)c1 [Compound 47A]"
  pIC50: "6.00 to 7.00"
- compound: "Cc1cc(C(=O)N[C@H]2CCOC2)nc(-n2ccnc2)c1 [Compound 38A]"
  pIC50: "6.00 to 7.00"

Look at each compound and report its pIC50.
1. Cc1cc(C(=O)NC2CCCCCC2)nc(-n2ccnc2)c1 [Compound 34A]
2. Cc1cc(C(=O)N[C@H]2CCCS(=O)(=O)C2)nc(-n2ccnc2)c1 [Compound 84A]
3. Cc1cc(C(=O)N[C@@H]2CCCOC2)nc(-n2ccnc2)n1 [Compound 69A]
4. Cc1cc(C(=O)NC2CCNCC2)nc(-n2ccnc2)c1 [Compound 11A]
5. Cc1cc(C(=O)NC2CCCS(=O)(=O)C2)nc(-n2ccnc2)c1 (stereo not drawn) [Compound 36A]
6. COCCC(=O)N1CCC(NC(=O)c2cc(C)cc(-n3ccnc3)n2)CC1 [Compound 20A]
7. Cc1cc(C(=O)N[C@H]2CCCN(S(C)(=O)=O)C2)nc(-n2ccnc2)c1 [Compound 50A]
8. Cc1cc(C(=O)N[C@@H]2CCC(C)(C)OC2)nc(-n2ccnc2)c1 [Compound 64A]

result:
> 7.52
6.00 to 7.00
> 7.52
< 6.00
6.00 to 7.00
7.00 to 7.52
6.00 to 7.00
7.00 to 7.52

Look at each compound and report its pIC50.
1. Cc1cc(C(=O)N[C@@H]2CCNC2)nc(-n2ccnc2)c1 [Compound 52A, dihydrochloride]
2. Cc1cc(C(=O)NC2CCN(S(=O)(=O)C3COC3)CC2)nc(-n2ccnc2)c1 [Compound 87A]
3. Cc1cc(C(=O)NC2COCC(F)(F)C2)nc(-n2ccnc2)c1 (stereo not drawn) [Compound 26A]
4. Cc1cc(C(=O)NC2CCN(S(C)(=O)=O)CC2)nc(-n2ccnc2)c1
5. CNC(=O)N1CCC(NC(=O)c2cc(C)cc(-n3ccnc3)n2)CC1 [Compound 22A]

result:
< 6.00
> 7.52
7.00 to 7.52
7.00 to 7.52
> 7.52
